This collection of values is drawn from the RNAGym collection of RNA variant scans (doi:10.1073/pnas.2313332121).

B1: TPR t1 (parent)
chain: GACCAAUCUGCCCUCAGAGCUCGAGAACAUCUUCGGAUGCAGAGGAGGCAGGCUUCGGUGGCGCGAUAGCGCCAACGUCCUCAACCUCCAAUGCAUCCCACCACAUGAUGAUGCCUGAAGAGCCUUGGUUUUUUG

- Variants of: B1
- Measurement Protocol: polymerase ribozyme fitness, log enrichment relative to wild type (log ratio); higher = more active; in vitro selection for triplet polymerase activity
Measured polymerase ribozyme fitness (log ratio) values are reported for all entries that follow.

# Query Sequence, polymerase ribozyme fitness (log ratio)
records = [
    ("GACCAAUCUACCCUCAGAGCUCGAGAACAUCUUCGGAUGCAGAGGAGGCAGACUUCGGUAGCGCGAUAGCGCCAACGUACUCAACCUCCAAUGCAUCCCACCACAUGAUGAUGCCUGAAGAGCCUUGGUUUUUUG", -1.36),
    ("GACCAAUCUGCCCUCAGAGCUCGAGAACAUCUUCGGAUGCAGAGGAGGCAGGCUUCGGUGGCGCGAUACCGCCAACGUCCUCAACCUCCAAUGCAUCCCAGCACAUGAUGAUGCCUGAAGAGCCUUGGUUUUUUG", -3.84),
    ("GACCAAUCUGCCCUCAGAGCUCGAGAACAUCUUCGUAUGCAGAGGAGGCAGGCUUCGGUGGCGCGAUAGCGCUAACGUCCUCAACCUCCAAUGCAUCCCACCACAUCAUGAUGCCUGAAGAGCCUUGGUUUUUUG", -6.17),
    ("GACCAAUCUGCCCUCAGAGCUCGAGAACAUCUUCGGAUGCAGAGGAGGCAGGCUUCGGUGGCGCGAUAGCGCCAACGUCCUCAACCUCCAAUGCAUCCCAUCACAUGAUGACGCCUGAAGAGCCUUGGUUUUUUG", 0.493),
    ("GACCAAUCUGCCCUCAGAGCUCGAGAACAUCUUCGGAUGCAGAGGAGGCAGGCUUCCGUGGCGCGAUAGCGCCAACGUCCUGAACCUCCAAUGCAUUCCACCACAUGAUGAUGCCUGAAGAGCCUUGGUUUUUUG", -1.07),
    ("GACCAAUCUGCUCUCAGAGCUCGAGAACAUCUUCGGAUGCAGAGGAGGCAGGCUUCGGUGGCGCGAUAGCGCCAACGUCCUCAACCUCCAAUGCAGCCCACCACAUGAUGAUGCCUGAAGAGCCUUGCUUUUUUG", -2.88),
    ("GACCAAUCUGCCCUCAGAGCUCGAGAACAUCUUCGGAUGCAGAGGAGGCAGGCUUCGGUGGCGCGAUAGCGCCAACGUCCUCAACCUCCAAUGCAUCCCACCACAUGAUGAUGCCUAAAAAGCCUUGGUUUUUUG", -2.42),
    ("GACCAAUCUGGCCUCAGAGCUCGAGAACAUCUUCGGAUGCAGAGGAGGCAGGCUUCGGUGACGUGAUAGCGCCAACGUCCUCAACCUCCAAUGCAUCCCACCACAUGAUGAUGCCUGAAUAGCCUUGGUUUUUUG", -0.77),
    ("GACCAAUCUGCCCUCAGAGCUCGAGUACAUCUUCGGAUGAAGAGGAGGCAGGCUUCGGUGGCGCGAUAGCGCCAACGUCCUCAACCUCCAAUGCAUCCCACCACAUGAUGAUGCCUGAAGAGCCUUGGUUUUUUG", -4.26),
    ("GACCAAUCUGCCCUCAGAGGUCGAGAACAUCUUCGGAUGCAGAGGAGGCAGGCUUCGGUGGCGCGAUAGCGCCAACGUCCUCAACCUCCAAUGCAUCCCACCACAUGAUGAUGGUUGAAGAGCCUUGGUUUUUUG", -6),
    ("GACCAAUCUGCUCUCAGAGCUCGAGAACAUCUUCGGAUGCAGAGGAGGCAGGCUUCGGUGGCGCGAUAGCGCCAACGUCCUCAACCUCCAAUGCAUCCUACCACAUGAUGAUGCCUGAAGAGCCUUGGUUUUUUG", -2.6),
    ("GACCAAUCUGCCCUCAGAGCUCGAGAACAUCUUCGGAUGCACAGGAGGCAGGCUUCGGUGGCGCGAUAUGGCCAACGUCCUCAACCUCCAAUGCAUCCCACCACAUGAUGAUGCCUGAAGAGCCUUGGUUUUUUG", -1.55),
    ("GACCAAUCUGCCCUCAGAGCUCGAGAACAUAUUCGGAUGCAGAGGAGGCAGGCUUCGGUGGCGCGAUAGCGCCAACGUCCUCAACCUCCAAUGCAUCCCACCACAUGAUGAUGCCUGAAGUGCCUUGGUUUUUUG", -3.46),
    ("GACCAAUCUGCCCUCAGAGCUCGAGAACAUCUUCGGAUGCAGAGGAGGCAGGCUUCGGUUGCGCGAUAGCGCCAACGUCCUCAACCUCCAAUGCAUCCCACCACAUGAUGAUGCCUGAAUAGCCUUGGUUUUUUG", 0.205),
    ("GACAAAUCUGCCCUCAGAGCUCGAGAACCUCUUCGGAUGCAGAGGAGGCAGGCUUCGGUGGCGCGAUAUCGCCAACGUCCUCAACCUCCAAUGCAUCCCACCACAUGAUAAUGCCUGAAAAGCCUUAGUUUUUUG", -4.61),
    ("GACCAAUCUGCCCUCAGAGCUCGAGAACAUCUUCGGAUGCAGAGGAGGGAGGCUUCGGUGGCGCGAUAGCGCCAACGUCCUCAACCUCCAAUACAUCCCACCACAUGAUGAUGCCUGAAGAGCCUUGGUUUUAUG", -0.83),
    ("GACCAAUCUGCCCUCAGAGCUCGAGAACAUCUUCGGAGGCAGAGGAGGCAGGCUUCGGUGGCGCGAUAGCGCCAACGUCCUCAACCUUCAAUGCAUCCCACCACAUGAUGAUGCCUGAAGAGCCUUGGUUUUUUG", -0.426),
    ("GACCAAUCUGCCCUCAGAGCUCGAGAACAUCUUCGGAUGCAGAGGUGGCAGGCUUCGGUGGCGCGAUAGCGCCAACGUCCUCGACCUCCAAUGCAUCCCACCACAUGAUAAUGCCUGAAGAGCCUUGGUUUUUUG", -3.02),
    ("GACCAAUCUGCACUCAGAGCUCGAGAACAUCUUCGGAUGCAGAGGAGGCAGGCUUCGGUGGCGCGAUAGCGCCAACGUCCUCAACCUCCAAUGCAUCCCACCACAUGAUGGUGCCUGAAGAGCCUUGGUUUUUUG", 0.3),
    ("GACCAAUCUGCCCUCAGAGCUCGAGAACAUCUUCAGAUGCAAAGGAGGCAGGCUUCGGUGGCGCGAUAGCGCCAACGUCCUCAACCUCCAAUGCAUCCCACCACAAGAUGAGGCCUGAAGCGCCUUUAUUUUUUG", -5.37),
    ("GACCAAUUUGCCCUCAGAGCUCGAGAACAUUUUCGGAUGCAGAGGAGGCAGGUUUCGGUGGCGCGAUAGCGCCAACGUCCUCAACCUCCAAUGCAUCCCACCACAUGAUGAUGCCUGAAGAGCCUUGGUUUUUUG", -4.36),
    ("GACCAAUCUGCCCUCAGAGCUCGAGAACAUCUUCGGAUGCAGAGGAGGCAGGCUUCGGUGGCGCGAUAGCGCCAACGUCCUCAACCUCAAAUGCAUCCCACCACAUGAUGAUCCCUGAAGAGCCUUGGUUUUUUG", -1.8),
    ("GACCAAUCUGCCCUCAGAGCUCGAGAACAUCUUCGGAUGCAGAGGAGGCAGGCUUGGGUGGCGCGAUAGCGUCAACGUCCUCAACCUCCAAUGCAUCCCACCACAUGAUGAUGCCUGAAGAGCUUUGGUUUUUUG", -0.654),
    ("GACCAAUCUGCCCUCAGAGCUCGAGAACAUCUUCGGAUGCAGAUGAGGCAGGCUUCGGUGGAGCGAUAGCGCCAACGUCCUCAACCUCCGAUGCAUCCCACCACAUGAUGAUGCCUGAAGAGCCUUGGUUUUUUG", -2.16),
    ("GACCAAUCUGCCCUCAGAGCUCGAGAACAUCUUCGGAUGUAGAGGUGGCAGGCUUCGGUGGCGCGAUAGCGCCAACGUCCUCAACCUUCAAUGCAUCCCACCACAUGAUGAUGCCUGAAGAGCCUUGGUUUUUUG", -2),
    ("GACCAAUCUGCCUUCAGAGCUCGAGAACAUCUUCGGAUGCAGCGGAGGCAGGCUUCGGUGGCGCGAUAGCACCAACGUCCUAAACCUCCAAUGCAUCGCACAACUUGAUGAUGCCUCAAGAGCCUUGGUUUUUUG", -6.77),
    ("GACCAAUCUGCCCUCAGAGCUCGAGAACAUCUUCGGAUGCAGAGGAGGCAUGUUUCGGUGGCGCGAUAGCGCCAACGUCCUCAAACUCCAAUCCAUCCCACCACAUGAUGAUGCCUGAAGAGCCUUGGUUUUUUG", -5.05),
    ("GACCAAUCUGCCAUCAGGGCUCGAGAACAUCUUCGGAUGCAGAGGAGGCAGGCUUCGGUGGCGCGAUAGCGCCAACGUCCUCAACCUCCAAUGCAUCGCACCACAUGAUGAUGCCUGAACAGCCUUGGUUUUUUG", -1.26),
    ("GACCAAUCUGCCCUCAGAGCUCGAGAACAUCUUCGGGUGCAGAGGAGGCAGGCUUCGGUGGCGCGAUAGGGCCAACGUCCUCAACCUCCAAUGCAUCCCACCACAUGAUGAUGCCUGAAGAGCCUUGGUUUUUUG", -3.43),
    ("GACCAAUCUGCCCUCAGAGCUCGAGAACAUCUUCGGAUGCAGAGGAGGCCGGCUUCGGUGUCGCGAUAGCGCCAACGUGCUCAACCUCCAAUGCAUCCCACCACAUGAUGAUGCCUGAAGAGCCUUGGCUUUUUG", -2.24),
    ("GACCAAUCUGCCCUCAGAGCUCGAGAACAUCUUCGCAUGCAGAGGAAGCAGGCUUAGGUGGCGCGAUAGCACCAACGGCCUCAACCUCCAAUGCAUCCCACCACAUGAUGAUGCUUGGAGAGCCUUGGUUUUUUG", -6.68),
    ("GACCAAUCUGCCCUCAGAGCUCGAGAACAUCUUCGGAUGCAGAGGAGGCAGGCUUAGGUGGCGCGAUAGCGCCAAAGUCCUCAACCUCCAAUGCAUCCCACCACAUGAUGAUGCCUGAAUAGCCUUGGUUUUUUG", -1.15),
    ("GACCAAUCUGCCUUCAGAGCUCGAGAACAUCUUCGGAUGCAGAGGGUGCAGGCUUCGGUGGCGCGAUAGCGCCAACGUCCUAAACCUCCAAUGCAUCCCACCACAUGAUGAUGCCUGAAGAGCCUUGGUUUUUUG", -1.52),
    ("GACCAAUCUGCCCUCAGAGCUCGAGAACAUCUUCGGAUGCAGAGGAGGCCGGCUUGGGUGGCGCGAUAGCGCCAACGUCCUCAACCUCCAAUGCAUCCCACCACAUGAUGAUGCCUGAAGAGCCUUGGUUUUUUG", -0.303),
    ("GACCAAUCUGCCCUCAGAGCUCGAGAACAUCUUCGGAUGCAGAGGAGGCAGGCAUCCGUGGCGCGAUAGCGCCAACGUCCUCAACCUCCGAUGCAUCCCACCACAUGAUGAUGUCUGAAGAGCCUUGGUUUAUUG", -2.18),
    ("GACCAAUCUGCGCUCAGAGCUCGAGAACAUCUUCGGAUGCAGAGGAGACAGGCUUCGGUAGCGCGAUAGCGCCAACGUCCUCAACCUCCAAUACAUCCCACCACAUGAUGAUGCCUGAAGAGCCUUGGUUUUUUG", -1.03),
    ("GACCAAUCUGACCUCAGAGCUCGAGAACAUCUUCGGAUGCAGAGGAGGCAGGUUUCGGUGGCGCGAUAGCGCCAACGUCCUCAAACUCCAAUGCAUCCCACCACAUGAUGAUGCCUGAAGAGCCUUGGUUUUUUG", -3.03),
    ("GACCAUUCUGCCCUCAGGGUUCGAGAACAUCUUCGGAUGCAGAGGAGGCAGGCUUCGGUGGCGCGAUAGCGCGAACGUCCUCAACCUCCAAUGCAUCCCACCACAUGAUGAUGCCUGAAGAGCCAUGGUUUUUUG", -2.1),
    ("GACCAAUCUGCCCUCAGAGCUCGAGAACAUCUUCGGAUGCAGAAGAGGCAGGCUUCGGUGUCGCGAUAGCGCCAACGUCCUCAACCUGCAAUGCAUCCCACCACAUGAUGAUGCCUGAAGAGCCUUGGUUUUUUG", -2.64),
]
